TESTED ON: Glycogen synthase kinase-3 beta (Homo sapiens) (UniProt P49841)
Sequence (P49841 whole entry, looked up): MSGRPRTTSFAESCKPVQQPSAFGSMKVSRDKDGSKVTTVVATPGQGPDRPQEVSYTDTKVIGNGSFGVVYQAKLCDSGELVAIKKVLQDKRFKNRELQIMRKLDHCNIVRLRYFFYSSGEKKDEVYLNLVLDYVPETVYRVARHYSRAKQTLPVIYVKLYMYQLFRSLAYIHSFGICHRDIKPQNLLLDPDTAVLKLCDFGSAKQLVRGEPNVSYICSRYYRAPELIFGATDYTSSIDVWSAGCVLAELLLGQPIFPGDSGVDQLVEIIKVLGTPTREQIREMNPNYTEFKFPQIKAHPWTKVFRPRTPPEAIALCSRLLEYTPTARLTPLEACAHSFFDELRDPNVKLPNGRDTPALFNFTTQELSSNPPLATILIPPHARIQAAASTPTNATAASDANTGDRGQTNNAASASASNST
CONDITIONS USED: at 1 µM
Class Fulfilled: residual activity at least 80%. Class Not fulfilled: residual activity below 80%.

CC(C)c1nn(-c2c(Cl)cccc2Cl)c2nc(Cc3ccc(OCCO)cc3)[nH]c(=O)c12 = Not fulfilled
N#C/C(=C1/Nc2ccccc2S1)c1ccnc(NCCc2cccnc2)n1 = Not fulfilled
O=C1NC(=O)C(c2cn(CCCn3ccnc3)c3ccccc23)=C1Nc1ccccc1 = Not fulfilled
Nc1nc(Nc2ccc(S(N)(=O)=O)cc2)nn1C(=O)c1c(F)cccc1F = Not fulfilled
O=C1NC(=O)c2c1c1c3ccccc3[nH]c1n1cncc21 = Not fulfilled
O=C1NC(=O)C(c2cn(CCCO)c3ncccc23)=C1c1cnccn1 = Not fulfilled
COc1cc2nccc(Oc3ccc(NC(=S)NC(=O)c4ccccc4C)cc3)c2cc1OC = Fulfilled
O=C1Nc2ccc(Cl)cc2/C1=C/c1cc(Cl)c(O)c(Cl)c1 = Fulfilled
Nc1ncnc2[nH]nc(Nc3ccc(F)cc3)c12 = Fulfilled
CCCCc1c(-c2ccc(OC)cc2)[nH]c2nccnc12 = Not fulfilled

Check this compound for residual activity at or above 80%: "O=c1c(-c2ccc(F)cc2)c(-c2ccncc2)[nH]n1-c1ccc(Cl)cc1"
Fulfilled

Check this compound for residual activity at or above 80%: "Nc1ncnc2c1cnn2-c1ccccc1"
Fulfilled

Check this compound for residual activity at or above 80%: "CCOC(=O)c1c(C)[nH]c(/C=C2\C(=O)Nc3ccccc32)c1C"
Fulfilled

Check this compound for residual activity at or above 80%: "Nc1ncnc2c1c(-c1ccc(Oc3ccccc3)cc1)cn2C1CCCC1"
Fulfilled

Check this compound for residual activity at or above 80%: "O=c1cc(N2CCOCC2)oc2c1ccc1ccccc12"
Fulfilled
